test: Stability tests of analytes in rat plasma QC samples
Assay type: in vitro ADME
run parameters: rat plasma, nominal conc. 20 nM
measurement label: Extracted samples at 8 °C for 18 h, Mean±SD (nM)
One number for each entry, in nM.

CC(C)=CCC[C@](C)(O[C@@H]1O[C@H](CO)[C@@H](O)[C@H](O)[C@H]1O)[C@H]1CC[C@]2(C)[C@@H]1[C@H](O)C[C@@H]1[C@@]3(C)CC[C@H](O)C(C)(C)[C@@H]3[C@@H](O[C@@H]3O[C@H](CO)[C@@H](O)[C@H](O)[C@H]3O[C@@H]3OC[C@@H](O)[C@H](O)[C@H]3O)C[C@]12C [Compound C8, Notoginsenoside R1]; 19.67

Go through the items and report each one's Extracted samples at 8 °C for 18 h, Mean±SD.
1. CC(C)=CCC[C@](C)(O[C@@H]1O[C@H](CO[C@@H]2OC[C@H](O)[C@H](O)[C@H]2O)[C@@H](O)[C@H](O)[C@H]1O)[C@H]1CC[C@]2(C)[C@@H]1[C@H](O)C[C@@H]1[C@@]3(C)CC[C@H](O[C@@H]4O[C@H](CO)[C@@H](O)[C@H](O)[C@H]4O[C@@H]4O[C@H](CO)[C@@H](O)[C@H](O)[C@H]4O)C(C)(C)[C@@H]3CC[C@]12C [Compound D4, Ginsenoside Rb2]
2. CC(C)=CCC[C@](C)(O[C@@H]1O[C@H](CO[C@@H]2O[C@H](CO)[C@@H](O)[C@H](O)[C@H]2O)[C@@H](O)[C@H](O)[C@H]1O)[C@H]1CC[C@]2(C)[C@@H]1[C@H](O)C[C@@H]1[C@@]3(C)CC[C@H](O[C@@H]4O[C@H](CO)[C@@H](O)[C@H](O)[C@H]4O[C@@H]4O[C@H](CO)[C@@H](O)[C@H](O)[C@H]4O)C(C)(C)[C@@H]3CC[C@]12C [Compound D5, Ginsenoside Rb1]

Result block:
1: 19.58; 2: 17.96

Query block: Please supply the value of reported Extracted samples at 8 °C for 18 h, Mean±SD for the item CC(C)=CCC[C@](C)(O)[C@H]1CC[C@]2(C)[C@@H]1[C@H](O)C[C@@H]1[C@@]3(C)CC[C@H](O)C(C)(C)[C@@H]3[C@@H](O[C@@H]3O[C@H](CO)[C@@H](O)[C@H](O)[C@H]3O[C@@H]3O[C@H](CO)[C@@H](O)[C@H](O)[C@H]3O)C[C@]12C [Compound C7, Ginsenoside Rf]
Result block: 19.73
